# Measured target: T1, Cre recombinase monomer with E176H mutation
# T1 chain: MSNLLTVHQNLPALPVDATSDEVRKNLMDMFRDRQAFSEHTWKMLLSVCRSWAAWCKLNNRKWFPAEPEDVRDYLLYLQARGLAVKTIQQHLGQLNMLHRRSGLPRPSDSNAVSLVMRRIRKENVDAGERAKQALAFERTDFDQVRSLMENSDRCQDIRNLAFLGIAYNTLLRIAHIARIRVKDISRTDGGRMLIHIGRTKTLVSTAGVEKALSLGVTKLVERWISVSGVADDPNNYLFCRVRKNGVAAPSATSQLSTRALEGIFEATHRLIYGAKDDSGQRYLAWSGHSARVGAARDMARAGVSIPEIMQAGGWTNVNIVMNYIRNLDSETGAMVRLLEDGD
Readout kind: Median dimer activity (recombination on loxP) (%)
Numbers only, in %.

Give Median dimer activity (recombination on loxP) for Cre recombinase monomer with R173L mutation (protein) MSNLLTVHQNLPALPVDATSDEVRKNLMDMFRDRQAFSEHTWKMLLSVCRSWAAWCKLNNRKWFPAEPEDVRDYLLYLQARGLAVKTIQQHLGQLNMLHRRSGLPRPSDSNAVSLVMRRIRKENVDAGERAKQALAFERTDFDQVRSLMENSDRCQDIRNLAFLGIAYNTLLLIAEIARIRVKDISRTDGGRMLIHIGRTKTLVSTAGVEKALSLGVTKLVERWISVSGVADDPNNYLFCRVRKNGVAAPSATSQLSTRALEGIFEATHRLIYGAKDDSGQRYLAWSGHSARVGAARDMARAGVSIPEIMQAGGWTNVNIVMNYIRNLDSETGAMVRLLEDGD
66
